molecular target: Serine/threonine-protein kinase PLK2 (Homo sapiens, UniProt Q9NYY3); assay: Inhibition of human PLK2 using casein as substrate
Sequence (Q9NYY3 whole entry): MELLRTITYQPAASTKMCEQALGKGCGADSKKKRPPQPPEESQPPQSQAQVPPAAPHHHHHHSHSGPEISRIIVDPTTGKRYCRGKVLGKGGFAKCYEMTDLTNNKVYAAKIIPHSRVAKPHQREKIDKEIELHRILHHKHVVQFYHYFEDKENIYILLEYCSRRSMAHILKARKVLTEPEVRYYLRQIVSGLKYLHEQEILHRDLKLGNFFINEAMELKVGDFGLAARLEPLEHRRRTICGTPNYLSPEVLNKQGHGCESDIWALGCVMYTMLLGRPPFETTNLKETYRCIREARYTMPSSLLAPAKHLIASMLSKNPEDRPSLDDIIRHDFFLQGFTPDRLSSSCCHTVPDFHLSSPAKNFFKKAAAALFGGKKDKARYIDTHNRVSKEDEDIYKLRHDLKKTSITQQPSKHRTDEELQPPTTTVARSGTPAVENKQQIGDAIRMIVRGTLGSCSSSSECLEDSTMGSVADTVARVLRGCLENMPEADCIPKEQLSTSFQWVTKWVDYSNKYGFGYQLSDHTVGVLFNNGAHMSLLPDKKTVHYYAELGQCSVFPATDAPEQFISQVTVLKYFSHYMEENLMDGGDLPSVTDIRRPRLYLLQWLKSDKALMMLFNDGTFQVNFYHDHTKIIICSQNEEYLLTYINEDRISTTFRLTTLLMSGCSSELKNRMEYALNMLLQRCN
measuredAttribute: pIC50
pIC50 here is simply -log10 of the concentration when that concentration is written in mol/L.

Ask: Returns the measured pIC50 for the input molecule. Input: Cn1c(=O)c(S(=O)(=O)c2ccc(F)cc2F)cc2cnc(Nc3ccc4[nH]ccc4c3)nc21
Result: 6.43

---

target: Fibroblast growth factor receptor 3 (Homo sapiens, UniProt P22607)
Sequence (P22607 whole entry): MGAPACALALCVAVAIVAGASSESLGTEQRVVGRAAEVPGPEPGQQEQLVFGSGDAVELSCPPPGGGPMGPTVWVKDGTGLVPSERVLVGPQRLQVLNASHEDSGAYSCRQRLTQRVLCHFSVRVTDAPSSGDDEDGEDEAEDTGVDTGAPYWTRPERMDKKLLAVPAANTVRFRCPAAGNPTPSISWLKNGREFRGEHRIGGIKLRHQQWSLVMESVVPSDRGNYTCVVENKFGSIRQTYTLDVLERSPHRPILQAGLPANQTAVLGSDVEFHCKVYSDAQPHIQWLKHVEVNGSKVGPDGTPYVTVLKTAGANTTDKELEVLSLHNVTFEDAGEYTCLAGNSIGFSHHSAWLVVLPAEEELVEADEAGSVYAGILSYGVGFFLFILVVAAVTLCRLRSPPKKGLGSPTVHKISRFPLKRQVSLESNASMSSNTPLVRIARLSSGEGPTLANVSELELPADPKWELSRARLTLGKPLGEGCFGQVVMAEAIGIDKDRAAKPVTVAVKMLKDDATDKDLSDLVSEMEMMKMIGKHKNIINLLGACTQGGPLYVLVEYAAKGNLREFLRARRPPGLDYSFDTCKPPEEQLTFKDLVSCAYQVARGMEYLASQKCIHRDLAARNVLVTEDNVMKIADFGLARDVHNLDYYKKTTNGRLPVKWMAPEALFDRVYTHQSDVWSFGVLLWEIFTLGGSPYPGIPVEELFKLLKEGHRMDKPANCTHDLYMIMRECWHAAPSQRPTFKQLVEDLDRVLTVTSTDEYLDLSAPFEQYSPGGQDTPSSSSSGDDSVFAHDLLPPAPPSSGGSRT
measuredAttribute: IC50

Ask: Short answer please: IC50, Fibroblast growth factor receptor 3 (Homo sapiens, UniProt P22607), entry Cn1c(=O)c(S(=O)(=O)c2ccc(F)cc2F)cc2cnc(Nc3ccc4[nH]ccc4c3)nc21
Result: > 5 µM

---

target: Ribosomal protein S6 kinase alpha-1 (Homo sapiens, UniProt Q15418)
Sequence (Q15418 whole entry): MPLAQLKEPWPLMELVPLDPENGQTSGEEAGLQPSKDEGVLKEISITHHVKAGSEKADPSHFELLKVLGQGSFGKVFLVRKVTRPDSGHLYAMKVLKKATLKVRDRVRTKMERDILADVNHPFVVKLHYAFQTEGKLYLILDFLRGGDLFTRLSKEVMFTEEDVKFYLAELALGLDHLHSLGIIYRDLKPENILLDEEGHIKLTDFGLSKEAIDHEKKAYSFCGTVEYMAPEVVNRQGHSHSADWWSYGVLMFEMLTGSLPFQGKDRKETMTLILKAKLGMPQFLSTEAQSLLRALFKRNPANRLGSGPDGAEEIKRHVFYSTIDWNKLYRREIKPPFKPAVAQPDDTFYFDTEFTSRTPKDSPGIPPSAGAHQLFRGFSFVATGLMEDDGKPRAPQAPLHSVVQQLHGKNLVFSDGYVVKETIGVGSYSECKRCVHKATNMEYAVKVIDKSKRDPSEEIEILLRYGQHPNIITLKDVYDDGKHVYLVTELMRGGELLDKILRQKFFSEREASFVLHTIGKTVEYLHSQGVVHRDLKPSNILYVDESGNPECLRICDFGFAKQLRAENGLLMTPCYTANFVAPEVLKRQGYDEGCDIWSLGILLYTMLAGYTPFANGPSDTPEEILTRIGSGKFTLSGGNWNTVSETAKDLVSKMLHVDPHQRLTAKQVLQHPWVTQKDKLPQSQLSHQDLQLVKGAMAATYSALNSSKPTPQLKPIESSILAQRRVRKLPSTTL
measuredAttribute: IC50

Ask: Short answer please: IC50, Ribosomal protein S6 kinase alpha-1 (Homo sapiens, UniProt Q15418), entry Cn1c(=O)c(S(=O)(=O)c2ccc(F)cc2F)cc2cnc(Nc3ccc4[nH]ccc4c3)nc21
Result: > 5 µM

---

target: Serine/threonine-protein kinase Nek5 (Homo sapiens)
Sequence (Q6P3R8 whole entry): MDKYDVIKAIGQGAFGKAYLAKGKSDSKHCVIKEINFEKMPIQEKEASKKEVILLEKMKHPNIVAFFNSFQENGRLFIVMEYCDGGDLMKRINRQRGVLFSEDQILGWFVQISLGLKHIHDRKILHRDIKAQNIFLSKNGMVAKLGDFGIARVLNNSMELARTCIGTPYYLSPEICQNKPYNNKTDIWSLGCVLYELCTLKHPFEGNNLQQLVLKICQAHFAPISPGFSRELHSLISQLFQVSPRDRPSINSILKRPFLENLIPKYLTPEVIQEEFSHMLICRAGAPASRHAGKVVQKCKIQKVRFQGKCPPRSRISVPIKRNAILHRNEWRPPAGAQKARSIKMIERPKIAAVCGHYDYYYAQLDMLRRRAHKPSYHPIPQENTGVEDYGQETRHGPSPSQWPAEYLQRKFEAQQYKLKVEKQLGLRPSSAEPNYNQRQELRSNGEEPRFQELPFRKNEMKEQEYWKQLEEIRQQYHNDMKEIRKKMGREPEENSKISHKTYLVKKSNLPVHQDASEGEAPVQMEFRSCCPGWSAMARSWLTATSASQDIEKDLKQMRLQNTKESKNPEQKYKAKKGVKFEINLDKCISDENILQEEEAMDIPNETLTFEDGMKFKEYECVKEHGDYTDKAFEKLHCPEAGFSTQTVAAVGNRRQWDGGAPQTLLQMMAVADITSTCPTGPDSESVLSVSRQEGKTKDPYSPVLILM
measuredAttribute: pIC50
pIC50 here is simply -log10 of the concentration when that concentration is written in mol/L.

Ask: Short answer please: pIC50, Serine/threonine-protein kinase Nek5 (Homo sapiens), entry Cn1c(=O)c(S(=O)(=O)c2ccc(F)cc2F)cc2cnc(Nc3ccc4[nH]ccc4c3)nc21
Result: 5.35

---

molecular target: Mitogen-activated protein kinase 14 (Homo sapiens); assay: Inhibition of human P38alpha using MBP as substrate
Sequence (Q16539 whole entry): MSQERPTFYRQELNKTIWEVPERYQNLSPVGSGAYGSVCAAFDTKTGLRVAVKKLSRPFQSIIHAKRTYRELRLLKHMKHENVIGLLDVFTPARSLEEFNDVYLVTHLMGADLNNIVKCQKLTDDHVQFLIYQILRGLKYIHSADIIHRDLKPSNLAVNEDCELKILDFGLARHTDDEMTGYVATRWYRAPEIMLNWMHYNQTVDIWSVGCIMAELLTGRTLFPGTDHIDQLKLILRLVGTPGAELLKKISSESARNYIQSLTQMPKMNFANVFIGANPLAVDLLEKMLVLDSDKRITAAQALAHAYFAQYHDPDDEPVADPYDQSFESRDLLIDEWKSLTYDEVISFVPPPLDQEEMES
pIC50: −log10 of the molar value.
measuredAttribute: pIC50

Ask: Returns the measured pIC50 for the input compound. Input: Cn1c(=O)c(S(=O)(=O)c2ccc(F)cc2F)cc2cnc(Nc3ccc4[nH]ccc4c3)nc21
Result: < 5.00
